Assignment: determine reported cell viability for the given molecules.
test system: DLD1; test: cell viability (CellTiter-Glo) relative to plate median (fraction of plate median); higher = more viable cells; conditions: 5 µM; treatment time 24 h; reporter: 7TFP

Memo: COC1=C[C@@H]2[C@@H]3Cc4ccc(OC)c(O)c4[C@]2(CCN3C)CC1=O , reported cell viability: 0.973

Memo: C=C(C)[C@H]1CN[C@H](C(=O)O)[C@H]1CC(=O)O , reported cell viability: 0.986

Memo: O=C(O)CCC1NCC2CC1CN1CCCCC21 (stereo unspecified) , reported cell viability: 0.999

Memo: CC(C)c1cc2c(c(O)c1O)[C@@]1(C(=O)O)CCCC(C)(C)[C@@H]1CC2 , reported cell viability: 0.981

Memo: N#C/C(=C\c1ccc(O)cc1)C(=O)O [alpha-CYANO-4-HYDROXYCINNAMIC ACID] , reported cell viability: 1.01

Memo: C=C[C@@H]1C2=CCOC(=O)C2=CO[C@H]1O[C@@H]1O[C@H](CO)[C@@H](O)[C@H](O)[C@H]1O , reported cell viability: 0.971

Data credit: the supplement of paper PMC6522484
